target: Thioredoxin reductase (Escherichia coli (strain K12), UniProt P0A9P4); assay: Inhibition of Escherichia coil TrxR incubated for 2 hrs in presence of DTT and insulin
Sequence (P0A9P4 whole entry): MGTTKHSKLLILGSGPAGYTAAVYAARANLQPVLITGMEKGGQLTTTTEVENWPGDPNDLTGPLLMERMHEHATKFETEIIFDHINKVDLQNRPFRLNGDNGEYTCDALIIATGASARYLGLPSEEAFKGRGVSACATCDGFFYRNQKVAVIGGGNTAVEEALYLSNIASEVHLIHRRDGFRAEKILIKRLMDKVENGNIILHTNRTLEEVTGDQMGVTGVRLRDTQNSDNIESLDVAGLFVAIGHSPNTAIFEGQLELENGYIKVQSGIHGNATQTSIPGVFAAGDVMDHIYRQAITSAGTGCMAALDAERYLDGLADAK
pIC50: −log10 of the molar value.
OBSERVATION TYPE: pIC50

INSERT INTO results (compound, val) VALUES
  ('C=C(COC(=O)Nc1ccc(C)cc1)C(=O)NC(CC(C)C)C(=O)NCC(=O)OCC (stereo unspecified)', 4.78);

* * *

Each entry below carries its reported IC50.
test system: HeLa; experiment: Cytotoxicity against human HeLa cells assessed as reduction in cell viability incubated for 72 hrs by MTT assay; type: functional, cell-based
OBSERVATION TYPE: IC50

INSERT INTO measurements (molecule, system_tested, observation_type, val) VALUES
  ('C=C(COC(=O)Nc1ccc(C)cc1)C(=O)NC(C(=O)NC(C)(C)C)c1ccc(Cl)cc1Cl (centres undefined)', 'HeLa', 'IC50', '> 20 µM'),
  ('C=C(COC(=O)Nc1ccc(C)cc1)C(=O)NC(C(=O)NCC(=O)OCC)c1ccc(Cl)cc1 (centres undefined)', 'HeLa', 'IC50', '> 20 µM'),
  ('C=C(COC(=O)Nc1ccc(C)cc1)C(=O)NC(C(=O)NC(C)(C)C)c1ccccc1 (centres undefined)', 'HeLa', 'IC50', '> 20 µM'),
  ('C=C(COC(=O)Nc1ccc(C)cc1)C(=O)NC(C(=O)NC(C)(C)C)c1ccc(Cl)cc1 (centres undefined)', 'HeLa', 'IC50', '> 20 µM');
